The reported measurements were obtained from PubChem BioAssay AID1159580.

# protocol-details: chemical genetic growth profiling, strain panel (AID 1159580);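 further: tested at 20 µM; growth read once vehicle control cultures reached saturation at 30 °C; 1 = growth at the plate median or of vehicle wells; lower values mean less growth of the strain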
# condition-label: S. cerevisiae deletion strains, growth OD, locus YLR262C, strain YPT6 (second series), stronger effect = lower value
The campaign covered roughly 5,500 compounds. About 2,000 (36%) were called active. Roughly 18% stayed inconclusive and do not appear here. The list shows a part of the results.
normalized growth: recorded values

CC#CC1(O)CCC2C3CCC4=CC(=O)CCC4=C3C(c3ccc(N(C)C)cc3)CC21C (stereo not drawn) ... 0.96 (inactive)
CC(C)NCC(O)COc1cccc2[nH]ccc12 (stereo not drawn) ... 0.994 (inactive)
O=c1cccc2ccc(O)c(O)c2c1O ... 0.397 (active)
Nc1ncn[nH]1 ... 1 (inactive)

Reported normalized growth, compound Oc1ccc2c(c1)O[C@H](c1ccc(O)c(O)c1)[C@@H](O)C2 : ____
1.04 (inactive)

Now give it for CN1CC(=O)N=C1N too.
1.09 (inactive)
